Biological target: T1, O7
T1 chain: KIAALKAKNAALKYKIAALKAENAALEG
Assay: two-hybrid library CC0;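 also: natural log of median RNA to DNA barcode read ratio; higher means stronger binding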
Conditions: mean of both orientations
PARAMETER MEASURED: interaction score

KNAALKAKIAALKYENAALEAKIAALKG [O6] | -2.72
KIAALKAKNAALKYKIAALKAENAALEG [O7] | -2.81
EIAALEAKIAALKYENAALEAENAALEG [O3] | -2.77
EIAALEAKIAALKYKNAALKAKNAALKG [O12] | -2.84
EIAALEAENAALEYKIAALKAENAALEG [O15] | -1.87
ENAALEAKNAALKYKIAALKAKIAALKG [O2] | -2.83
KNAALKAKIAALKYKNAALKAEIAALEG [O13] | -2.81
